molecular target: Bile acid receptor (Homo sapiens) (UniProt Q96RI1); test: ATG_IR1_CIS: Attagene CIS-FACTORIAL HepG2 Assay for human Nuclear Receptor Subfamily 1 Group H Member 4 (NR1H4), IR1 submotif (AID 2282946); settings: IR1 reporter transcription, actives raise or lower the signal
Sequence (Q96RI1 whole entry, looked up): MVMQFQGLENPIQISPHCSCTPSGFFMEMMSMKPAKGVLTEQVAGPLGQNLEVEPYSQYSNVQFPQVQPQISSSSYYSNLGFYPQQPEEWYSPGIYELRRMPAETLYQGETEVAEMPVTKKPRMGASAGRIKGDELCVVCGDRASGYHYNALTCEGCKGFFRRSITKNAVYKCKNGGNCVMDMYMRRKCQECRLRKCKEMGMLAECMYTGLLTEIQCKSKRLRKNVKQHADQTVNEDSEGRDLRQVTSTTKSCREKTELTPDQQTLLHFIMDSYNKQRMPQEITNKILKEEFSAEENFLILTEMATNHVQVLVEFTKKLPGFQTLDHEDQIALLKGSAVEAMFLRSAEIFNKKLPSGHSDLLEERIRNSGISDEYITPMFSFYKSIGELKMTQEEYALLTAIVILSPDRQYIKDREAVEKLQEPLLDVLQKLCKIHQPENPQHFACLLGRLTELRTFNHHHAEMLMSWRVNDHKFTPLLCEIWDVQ
Active and inactive are the calls of the source. How the source made its calls: active means hit-call score of the fitted dose curve at least 0.9, where 1 is the maximum; inactive means score below 0.9.
Permitted responses: active, inactive

Worked cases, answers included:
Cc1c[nH]c(=O)[nH]c1=O	inactive
Nc1ncnc2nc[nH]c12	inactive
CCC(C)N (stereo not drawn)	inactive

// switching to the query molecule
Asked: Fill in: this test's call for `CC(C)C(=O)OCCc1ccccc1` is ___
Given back: inactive

###

read-out: Plasminogen activator inhibitor-1 (PAI1), SERPINE1 (gene 5054); experiment: BSK_hDFCGF_PAI1: BioMAP Diversity Plus: hDFCGF Assay for Plasminogen activator inhibitor-1 (PAI1) Biomarker Activity (AID 2283066); conditions: primary human foreskin fibroblasts; actives raise or lower the signal
Calls of active or inactive are those of the source. The calls were made as follows: active = hit-call score of the fitted dose curve at least 0.9, where 1 is the maximum; inactive = score below 0.9.
readoutKind: AC50

CC/C=C\C/C=C\C/C=C\CCCCCCCC(=O)OC	6.64 µM (active)
Fc1ccc(Br)cc1	inactive
CC(c1cc(C(C)(C)C)cc(C(C)(C)C)c1O)c1cc(C(C)(C)C)cc(C(C)(C)C)c1O	0.358 µM (active)
CC1(C)CC(O)CC(C)(C)N1[O]	inactive
CCN1CN(CC)CN(CC)C1	inactive

# evaluate next
Asked: # return recorded AC50 for input `CCCCCC1=CCCC1=O`
Given back: inactive

###

target: Oxysterols receptor LXR-beta (Homo sapiens) (UniProt P55055); assay: ATG_LXRb_TRANS: Attagene TRANS-FACTORIAL HepG2 Assay for human Liver X Receptor beta (LXRb) (AID 2282981); conditions: HepG2 Attagene TRANS GAL4-LXRb reporter, mRNA
Sequence (P55055 whole entry, looked up, the tested form may be a part): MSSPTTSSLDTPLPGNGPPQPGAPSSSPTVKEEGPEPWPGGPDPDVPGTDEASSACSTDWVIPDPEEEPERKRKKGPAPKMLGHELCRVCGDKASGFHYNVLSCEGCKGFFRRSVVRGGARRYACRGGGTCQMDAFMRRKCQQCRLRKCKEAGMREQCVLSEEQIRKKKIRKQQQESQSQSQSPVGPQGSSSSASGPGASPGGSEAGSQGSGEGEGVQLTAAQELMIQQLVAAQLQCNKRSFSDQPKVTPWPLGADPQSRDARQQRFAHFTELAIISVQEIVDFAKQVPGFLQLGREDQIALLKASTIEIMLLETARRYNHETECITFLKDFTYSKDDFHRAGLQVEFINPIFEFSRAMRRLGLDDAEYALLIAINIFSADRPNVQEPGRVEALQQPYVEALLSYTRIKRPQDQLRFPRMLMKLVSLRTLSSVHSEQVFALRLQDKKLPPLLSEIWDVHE
Inconclusive results are not listed. The source made the active and inactive calls. The calls were made as follows: active = hit-call score of the fitted dose curve at least 0.9, where 1 is the maximum; inconclusive = response in the unintended direction; inactive = score below 0.9.
Permitted responses: T (active), F (inactive)

Worked cases, answers included:
c1ccc(-c2nc3ccccc3[nH]2)cc1	F
CC(C)=CCl	F
CCCCCCOC(=O)CCCCC(=O)OCCCCCC	F
C=C[C@@]1(C)CC(=O)[C@]2(O)[C@@]3(C)[C@@H](O)CCC(C)(C)[C@@H]3[C@H](O)[C@H](OC(C)=O)[C@@]2(C)O1	T

// switching to the query compound
Asked: Fill in: this test's call for `Oc1ccc(/C=C/c2cc(O)cc(O)c2)cc1` is ___
Given back: F

###

biological target: Estrogen receptor (Homo sapiens); test: OT_ER_ERaERa_1440: Odyssey Thera (OT) 24-hour HEK293T Protein-Complementation Assay for Estrogen Receptor-alpha/-alpha Homodimer (AID 2283349);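 further: hits raise fluorescence above DMSO for agonists and antagonists alike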
Active and inactive are the calls of the source. How the source made its calls: active means hit-call score of the fitted dose curve at least 0.9, where 1 is the maximum; inconclusive means response in the unintended direction; inactive means score below 0.9.
Permitted responses: active, inactive

CC(C)c1cc(C(C)C)cc(C(C)C)c1	inactive
CCCCOCCOC(=O)COc1ccc(Cl)cc1Cl	inactive
CC(C)c1ccc(O)c(C(C)C)c1	inactive
CC(=O)OC(C)c1ccccc1 (stereo not drawn)	inactive

Asked: Fill in: this test's call for `c1ccc(Nc2cccc3ccccc23)cc1` is ___
Given back: active

Asked: Fill in: this test's call for `CCOC(=O)c1ccc(C)cc1` is ___
Given back: inactive

Asked: Fill in: this test's call for `CC(C)=CCCC(C)=CC#N` is ___
Given back: inactive

Asked: Fill in: this test's call for `CCCCCCCCCCCC(=O)N(C)CC(=O)O` is ___
Given back: inactive
